Known IC50 of a selection of compounds
Tested on: Trypanosoma brucei rhodesiense
Test: Antitrypanosomal activity against blood stream form of Trypanosoma brucei rhodesiense STIB900 trypomastigotes after 70 hrs by alamar blue assay
Format: functional, organism-based
Conditions: STIB900, 70 h
Please give a number only; it is taken to be in nM.

GET /value?item= "N=C(N)c1ccc(OCCCOc2ccc(-c3cc4ccc(C(=N)N)cc4o3)cc2)cc1" &field=IC50 returns 25

# compound "CC(C)NC(=N)c1ccc2oc(-c3cccc(OCCCCCCOc4ccccc4)c3)cc2c1" ; its IC50 = 1160

###

Assay: Selectivity index, ratio of IC50 for rat L6 cells to IC50 for blood stream form of Trypanosoma brucei rhodesiense STIB900 trypomastigotes
Assay type: toxicity, cell-based
Conditions: read-out: Ratio IC50
Quick list: selectivity ratio per entry.
Note: the reply should be a number with no unit written.

Smiles Data	Result Number
c1ccc(OCCCCCCOc2cccc(-c3cc4cc(C5=NCCN5)ccc4o3)c2)cc1	26

As a next step, examine the compound that follows.
Query "CC(C)NC(=N)c1ccc2oc(-c3cccc(OCCCCCCOc4ccccc4)c3)cc2c1" yields selectivity ratio of 6

###

# Lookup of reported selectivity ratio keyed by entry
Assay: Selectivity index, ratio of IC50 for rat L6 cells to IC50 for Leishmania donovani MHOM/SD/62/1S-CL2D axenic amastigotes
Format: toxicity, cell-based
Conditions: read-out: Ratio IC50

Smiles Data	selectivity ratio
CC(C)NC(=N)c1ccc2oc(-c3cccc(OCCCCCCOc4ccccc4)c3)cc2c1	1

Note to self: selectivity ratio recorded for "c1ccc(OCCCCCCOc2cccc(-c3cc4cc(C5=NCCN5)ccc4o3)c2)cc1" was 1
